B1: HDV Ribozyme (parent)
chain: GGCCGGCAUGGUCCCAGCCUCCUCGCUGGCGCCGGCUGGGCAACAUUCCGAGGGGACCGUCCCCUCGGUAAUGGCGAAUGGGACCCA

variants of: B1; test: self-cleavage, relative activity (ratio to wild type); higher = more cleavage; co-transcriptional
observation.type: self-cleavage
Answers are plain numbers.

- mutant.name: "U37C G52U"
  self-cleavage: 0.997
- mutant.name: "G5A U60C"
  self-cleavage: 0.353
- mutant.name: "G50U G67A"
  self-cleavage: 0.959
- mutant.name: "C3G U12A"
  self-cleavage: 0.0462
- mutant.name: "C32G A77G"
  self-cleavage: 0.0475

Provide self-cleavage values for the following items, in order.
1. G17C A71C
2. G53A C57U
3. G74U G80C

1: 0.246; 2: 1.06; 3: 0.164

Numbers sourced from the RNAGym collection of RNA variant scans (doi:10.7554/elife.80360).
